Binding to 1 nM Flk-1, % by entry:
- Target or system: T1, mouse vascular endothelial growth factor receptor-2 Fc chimera (Flk-1-Fc) (mouse, UniProt P35918 20-762)
- T1 construct: Bought from R&D Systems; also called mouse VEGFR-2; not shown: Fc part of the purchased chimera, not specified
- T1 sequence (P35918 20-762, change not shown): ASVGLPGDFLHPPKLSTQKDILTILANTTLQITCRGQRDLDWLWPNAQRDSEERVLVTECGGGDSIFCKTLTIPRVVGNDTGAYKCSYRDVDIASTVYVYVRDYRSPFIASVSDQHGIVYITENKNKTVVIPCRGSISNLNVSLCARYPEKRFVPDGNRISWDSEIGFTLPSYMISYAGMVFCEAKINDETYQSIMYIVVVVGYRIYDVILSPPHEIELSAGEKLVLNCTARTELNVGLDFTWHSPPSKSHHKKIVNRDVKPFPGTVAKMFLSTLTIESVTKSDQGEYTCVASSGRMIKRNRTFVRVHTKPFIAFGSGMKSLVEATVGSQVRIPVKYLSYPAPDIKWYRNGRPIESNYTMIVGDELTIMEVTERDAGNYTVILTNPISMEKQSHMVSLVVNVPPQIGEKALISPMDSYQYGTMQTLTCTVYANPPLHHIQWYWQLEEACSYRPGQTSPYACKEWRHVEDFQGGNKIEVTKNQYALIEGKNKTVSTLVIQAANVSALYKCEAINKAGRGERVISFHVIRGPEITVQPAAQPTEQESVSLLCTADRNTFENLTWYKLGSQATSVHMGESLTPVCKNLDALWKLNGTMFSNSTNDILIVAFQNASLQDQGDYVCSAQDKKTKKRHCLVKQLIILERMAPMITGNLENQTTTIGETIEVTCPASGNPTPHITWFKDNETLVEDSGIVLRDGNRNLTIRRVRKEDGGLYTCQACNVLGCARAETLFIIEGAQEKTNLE
- Run description: radioactive equilibrium binding assay, 1 nM Flk-1-Fc, % of input bound
- Protocol: To prepare ³⁵S-labeled binding proteins for analysis, mRNA was prepared as described above for RNA-protein fusion production but the linker ligation step was omitted. […] 50 μA of the reaction mixture and elution were dried onto a LumaPlate-96 (Packard) and the amount of ³⁵S on the plate was measured using a TopCount NXT instrument (Packard). […] Data was analyzed using the GraphPad Prizm software (GraphPad Software, Inc, San Diego, Calif.), fitted using a one site, non-linear binding equation.
Quantity name: Binding to 1 nM Flk-1, % (%)

- B4 (designed binder, 10Fn3 clone, Del 1-8) EVVAATPTSLLISWRHPHFPTRYYRITYGETGGNSPVQEFTVPLQPPTATISGLKPGVDYTITGYAVTNERNGRELMTPISINYRT: 12
- E16 (designed binder, 10Fn3 clone, Del 1-8) EVVAATPTSLLISWRHPHFPTRYYRITYGETGGNSPVQEFTVPLQPPTATISGLKPGVDYTITGYAVTVEENGRQLMTPISINYRT: 0
- E17 (designed binder, 10Fn3 clone, Del 1-8) EVVAATPTSLLISWRHPHFPTRYYRITYGETGGNSPVQEFTVPLQPPTATISGLKPGVDYTITGYAVTVEENGRVLNTPISINYRT: 10
- F10 (designed binder, 10Fn3 clone, Del 1-8) EVVAATPTSLLISWRHPHFPTRYYRITYGETGGNSPVQEFTVPLQPPTATISGLKPGVDYTITGYAVTMAPNGRELLTPISINYRT: 1
- G3 (designed binder, 10Fn3 clone, Del 1-8) EVVAATPTSLLISWRHPHFPTRYYRITYGETGGNSPVQEFTVPLQPPTATISGLKPGVDYTITGYAVTMERSGRELMTPISINYRT: 10
